Assay System: Ileal sodium/bile acid cotransporter (Homo sapiens, UniProt Q12908)
Sequence (Q12908 whole entry): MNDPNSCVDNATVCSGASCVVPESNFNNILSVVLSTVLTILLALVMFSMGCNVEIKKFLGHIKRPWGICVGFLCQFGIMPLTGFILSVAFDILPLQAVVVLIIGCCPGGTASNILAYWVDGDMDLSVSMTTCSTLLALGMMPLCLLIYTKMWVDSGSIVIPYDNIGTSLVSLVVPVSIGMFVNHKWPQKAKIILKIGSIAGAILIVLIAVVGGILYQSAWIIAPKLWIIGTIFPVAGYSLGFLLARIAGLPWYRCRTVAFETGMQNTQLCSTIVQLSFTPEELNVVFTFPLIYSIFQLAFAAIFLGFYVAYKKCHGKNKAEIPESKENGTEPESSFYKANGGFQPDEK
Assay Name: Binding affinity to ASBT (unknown origin) assessed as inhibition constant
Measure: Ki (µM)
// note: answer is a bare numeric in µM

Q. Please report Ki for the following molecule: C[C@H](CCC(=O)NCC(=O)O)[C@H]1CC[C@H]2[C@@H]3[C@H](O)C[C@@H]4C[C@H](OC(=O)c5cccnc5)CC[C@]4(C)[C@H]3CC[C@]12C
A. 6.45

Q. Please report Ki for the following molecule: C[C@H](CCC(=O)NCC(=O)O)[C@H]1CC[C@H]2[C@@H]3[C@@H](OC(=O)c4cccnc4)C[C@@H]4C[C@H](O)CC[C@]4(C)[C@H]3CC[C@]12C
A. 15.2

Q. Please report Ki for the following molecule: C[C@H](CCC(=O)NCC(=O)O)[C@H]1CC[C@H]2[C@@H]3[C@@H](OC(=O)c4ccc(F)cc4)C[C@@H]4C[C@H](O)CC[C@]4(C)[C@H]3CC[C@]12C
A. 8.39

Q. Please report Ki for the following molecule: C[C@H](CCC(=O)NCC(=O)O)[C@H]1CC[C@H]2[C@@H]3[C@H](OC(=O)c4cccnc4)C[C@@H]4C[C@H](O)CC[C@]4(C)[C@H]3CC[C@]12C
A. 15.6

###

Assay Name: Inhibition of Sialyltransferase (unknown origin)
Set-up: species or system Homo sapiens
Measure: IC50 (µM)
// note: answer is a bare numeric in µM

Q. Please report IC50 for the following compound: C[C@H](CCC(=O)O)[C@H]1CC[C@H]2[C@@H]3CC[C@@H]4C[C@H](OC(=O)[C@H](N)CC(=O)O)CC[C@]4(C)[C@H]3CC[C@]12C
A. 6

Q. Please report IC50 for the following compound: CCCP(=O)(OCC)C(Cc1cn(CCC[C@@H](C)[C@H]2CC[C@H]3[C@@H]4CC[C@@H]5C[C@H](O)CC[C@]5(C)[C@H]4CC[C@]23C)nn1)C(=O)O (stereo partly drawn)
A. 7

Q. Please report IC50 for the following compound: C[C@H](CCCn1cc(CCCC(=O)O)nn1)[C@H]1CC[C@H]2[C@@H]3CC[C@@H]4C[C@H](O)CC[C@]4(C)[C@H]3CC[C@]12C
A. 5
